Values from PubChem BioAssay (NCI)

- System: EKVX NSCLC
- method.summary: NCI-60 one-dose screen, 48 h (100 = growth as untreated, 0 = no growth, -100 = all killed)
- assay.conditions: 10 µM unless noted
About 83,000 compounds went through this panel and 20% of them were active in at least one assay; those are over-represented in the sample as a whole.

- molecule: "COc1cc(C(=O)/C=C/c2cccc(Nc3ccnc4cc(Cl)ccc34)c2)cc(OC)c1OC"
  tested.system: "EKVX NSCLC"
  u: "%"
  growth: 16.8
- molecule: "COc1cc(-c2nc3nc4sc(C)c(C)c4c(=O)n3[nH]2)cc(OC)c1OC"
  tested.system: "EKVX NSCLC"
  u: "%"
  growth: 88
- molecule: "CSc1nc(N)c2c(n1)N(C)C=NS2(=O)=O"
  tested.system: "EKVX NSCLC"
  u: "%"
  growth: 113
- molecule: "C[C@@H]1CN(c2nc3c(cc2F)c(=O)c(C(=O)O)cn3C(C)(C)C)C[C@H](C)N1"
  tested.system: "EKVX NSCLC"
  u: "%"
  growth: 104
- molecule: "CC12CCC3C(=CCc4cc(O)ccc43)C1CCC2=O (stereo not given)"
  tested.system: "EKVX NSCLC"
  u: "%"
  growth: 72.3
- molecule: "CCN1CC2=C(Nc3nc(SC)[nH]c(=O)c3C2c2cc(OC)c(OC)c(OC)c2)/C(=C/c2cc(OC)c(OC)c(OC)c2)C1 (stereo not given)"
  tested.system: "EKVX NSCLC"
  u: "%"
  growth: 87.3
- molecule: "C=CCNC(=O)/C(=C/c1cccc([N+](=O)[O-])c1)NC(=O)c1ccccc1"
  tested.system: "EKVX NSCLC"
  u: "%"
  growth: 108
- molecule: "NS(=O)(=O)c1cc2c(cc1Cl)NC=NS2(=O)=O"
  tested.system: "EKVX NSCLC"
  u: "%"
  growth: 107
- molecule: "COc1cnc2c(c1)C(=O)c1c-2n(CCCn2ccnc2)c(=O)c2cc(F)ccc12"
  tested.system: "EKVX NSCLC"
  u: "%"
  growth: 11.4
- molecule: "O=C1Nc2ccc(C(=O)O)c(O)c2C1=O"
  tested.system: "EKVX NSCLC"
  u: "%"
  growth: 97.8

* * *

- Tested on: SK-OV-3 ovarian
- method.summary: NCI-60 one-dose screen, 48 h
- assay.conditions: 10 µM unless noted
About 83,000 compounds went through this panel and 20% of them were active in at least one assay; those are over-represented in the sample as a whole. Activity calls are given as the source filed them. The calls were made as follows: active = growth percent below 10; inactive = the rest.
Labels: Yes (active), No (inactive)

- compound: "O=C(/C=C(\\Nc1ccccc1)c1ccccc1)c1cn(-c2ccc([N+](=O)[O-])cc2)nn1"
  qualitative.label: "No"
- compound: "NS(=O)(=O)c1ccc(-n2ncc3c(SCc4ccccc4)ncnc32)cc1"
  qualitative.label: "No"
- compound: "CCCCCCCC[Si](OCC)(OCC)OCC"
  qualitative.label: "No"
- compound: "COc1cc(NC(C)CCCN)c2nc(C)ccc2c1Oc1ccc(F)cc1 (stereo unspecified)"
  qualitative.label: "No"
- compound: "CNNc1ncnc2c1cnn2-c1ccc(S(N)(=O)=O)cc1"
  qualitative.label: "No"
- compound: "Oc1c(N=Nc2nn[nH]n2)ccc2ccccc12"
  qualitative.label: "No"
- compound: "N#CSCC1CC(O)(c2ccccc2)C(c2ccccc2)C(c2ccc(Cl)cc2)O1 (stereo unspecified)"
  qualitative.label: "No"
- compound: "NC(=O)c1cc(Cl)ccc1NC(=O)c1ccccc1-c1ccccc1"
  qualitative.label: "No"
- compound: "O=C(COc1ccc(/C=C2\\Oc3ccc4ccccc4c3C2=O)cc1)c1ccc(Cl)cc1"
  qualitative.label: "No"
- compound: "CCSCC1CC(O)(c2ccccc2)C(c2ccccc2)C(c2ccc(Cl)cc2)O1 (stereo unspecified)"
  qualitative.label: "Yes"
- compound: "O=C(Nc1ccccc1)c1cc(-n2cnc([N+](=O)[O-])c2)cc(-n2cnc([N+](=O)[O-])c2)n1"
  qualitative.label: "No"
- compound: "[N-]=[N+]=NCc1cccc(/C(O)=C/C(=O)C(=O)O)c1"
  qualitative.label: "No"
- compound: "Cc1cc(C)c2c(N)c3cccc(C)c3nc2n1"
  qualitative.label: "Yes"
- compound: "CCCCCc1c(C)[nH]c(/C=C2\\N=C(c3ccc[nH]3)C=C2Oc2ccccc2)c1C"
  qualitative.label: "Yes"
- compound: "CN(C)CCCN=c1cc2c(=O)n(CCCN(C)C)c(=O)c3c(NCCCN(C)C)cc4c(O)n(CCCN(C)C)c(=O)c1c4c3-2"
  qualitative.label: "Yes"
- compound: "O=Cc1ccccc1C(=O)O"
  qualitative.label: "No"
- compound: "C(=C1c2ccccc2-c2ccccc21)c1ccncc1"
  qualitative.label: "No"
- compound: "O=C1C2C(C(=O)N1CC[Se][Se]CCN1C(=O)C3C(C1=O)[C@H]1C=C[C@@H]3C1)[C@H]1C=C[C@@H]2C1 (stereo partly specified)"
  qualitative.label: "Yes"
- compound: "COc1ccc(C2=NN(C(C)=O)C(c3c(C)nn(-c4ccccc4)c3N3CCOCC3)C2)cc1 (stereo unspecified)"
  qualitative.label: "No"
- compound: "Cc1ccc2nc(SCC(=O)Nc3ccc(-c4nc5ccccc5s4)c(Cl)c3)[nH]c2c1"
  qualitative.label: "No"
- compound: "O=C1C=CC(=O)N1c1ccccc1N1C(=O)C=CC1=O"
  qualitative.label: "No"

* * *

- Test system: NCI-H522 lung
- method.summary: NCI-60 one-dose screen, 48 h (100 = growth as untreated, 0 = no growth, -100 = all killed)
- assay.conditions: 10 µM
This is part of a sample that, as a whole, favours compounds with a hit. Of some 83,000 tested, about 20% had one in any assay.

- compound: "Oc1c(Cl)cc(Cl)c(Cl)c1Cc1c(O)c(Cl)cc(Cl)c1Cl"
  tested.system: "NCI-H522 lung"
  growth, %: -3.33
- compound: "COc1ccc(C(=O)COc2ccc(/C=C3\\Oc4ccc5ccccc5c4C3=O)cc2)cc1"
  tested.system: "NCI-H522 lung"
  growth, %: 64
- compound: "CC(=O)c1ccccc1NC(=O)C(C)(c1ccccc1)c1ccccc1"
  tested.system: "NCI-H522 lung"
  growth, %: 77.3
- compound: "COc1ccc2[nH]c(=O)c(CNc3ccc(Nc4nccc(-c5ccc(Cl)cc5)n4)cc3)cc2c1"
  tested.system: "NCI-H522 lung"
  growth, %: 83.8
- compound: "O=Nc1c2cccnc2n2nnc3ccc(Cl)cc3c12"
  tested.system: "NCI-H522 lung"
  growth, %: -71.5
- compound: "COc1cc(/C=C2\\CN(C)CC3=C2Nc2nc(SC)[nH]c(=O)c2C3c2cc(OC)c(OC)c(OC)c2)cc(OC)c1OC (stereo not given)"
  tested.system: "NCI-H522 lung"
  growth, %: 37.8
- compound: "N#Cc1ncc(-c2ccc(C(F)(F)F)cc2)c(NC2CCCCCC2)n1"
  tested.system: "NCI-H522 lung"
  growth, %: -4.74
- compound: "N#Cc1c(-c2ccc(F)cc2)n2c(nc1=O)SC(=O)C2=O"
  tested.system: "NCI-H522 lung"
  growth, %: 103
- compound: "O=Cc1ccccc1C(=O)O"
  tested.system: "NCI-H522 lung"
  growth, %: 96.7
- compound: "COC(=O)C1CCN(S(=O)(=O)c2ccc(-c3ccccc3)cc2)CC1"
  tested.system: "NCI-H522 lung"
  growth, %: 99.8

* * *

- Tested on: NCI-H226 lung
- method.summary: NCI-60 one-dose screen, 48 h (100 = growth as untreated, 0 = no growth, -100 = all killed)
- assay.conditions: 10 µM unless noted
About 83,000 compounds went through this panel and 20% of them were active in at least one assay; those are over-represented in the sample as a whole. The source made the active and inactive calls. Rule for the calls: active = growth percent below 10; inactive = the rest.
Entries and their growth values follow.
endpoint.name: growth

- compound: "COc1cc(/C=C/C(=O)C(C(=O)/C=C/c2ccc(OC(=O)CCNC34CC5CC(CC(C5)C3)C4)c(OC)c2)C(=O)CCNC23CC4CC(CC(C4)C2)C3)ccc1OC(=O)CCNC12CC3CC(CC(C3)C1)C2 (stereo unspecified)"
  tested.system: "NCI-H226 lung"
  measurement: "31.4% (inactive)"
- compound: "O=C(c1ccc(Cl)cc1)c1ccc(Cl)cc1"
  tested.system: "NCI-H226 lung"
  measurement: "100% (inactive)"
- compound: "C#C[C@]1(O)CCC2C3CCc4cc(O)ccc4C3CC[C@@]21C (stereo partly specified)"
  tested.system: "NCI-H226 lung"
  measurement: "81.3% (inactive)"
- compound: "FC(F)(F)c1ccc(-c2cnc(-c3nn[nH]n3)nc2NC2CCCCCC2)cc1"
  tested.system: "NCI-H226 lung"
  measurement: "70.9% [50 µM] (inactive)"
- compound: "COc1cc(/C(Cl)=C/C=C/C(=O)c2c(C)[n+]([O-])c3ccc(Cl)cc3[n+]2[O-])cc(OC)c1OC"
  tested.system: "NCI-H226 lung"
  measurement: "54.3% (inactive)"
- compound: "CC(=O)c1nn(-c2ccccc2)c(=Nc2ccccc2)cc1C"
  tested.system: "NCI-H226 lung"
  measurement: "98.1% (inactive)"
- compound: "COC(=O)C1(NC(=O)CNC(=O)OCc2ccccc2)CCCC1"
  tested.system: "NCI-H226 lung"
  measurement: "99.1% (inactive)"
- compound: "COc1ccc(-n2cnc3cc(C(=O)N4CCCCC4)ccc32)cc1"
  tested.system: "NCI-H226 lung"
  measurement: "95.3% (inactive)"
- compound: "N#Cc1c(-c2ccccc2)cc(-c2ccccc2)n(CCCCCCC(=O)O)c1=O"
  tested.system: "NCI-H226 lung"
  measurement: "93.1% (inactive)"
- compound: "COc1cc2c(cc1OC)C(=O)/C(=C/c1cccc(OCC(=O)c3ccccc3)c1)C2"
  tested.system: "NCI-H226 lung"
  measurement: "86.1% (inactive)"
- compound: "Oc1c(Cl)cc(Cl)c(Cl)c1Cc1c(O)c(Cl)cc(Cl)c1Cl"
  tested.system: "NCI-H226 lung"
  measurement: "18% (inactive)"
- compound: "COc1ccc2nc(-c3ccc(Cl)cc3)cc(-c3nnc(SCC(=O)Nc4ccc(C(C)=O)cc4)n3-c3ccccc3)c2c1"
  tested.system: "NCI-H226 lung"
  measurement: "99.1% (inactive)"
- compound: "CCOC(CNCc1cc(C)c2[nH]c3ccccc3c2c1C)OCC"
  tested.system: "NCI-H226 lung"
  measurement: "70% (inactive)"
- compound: "N#CC(C#N)C(C#N)C#N"
  tested.system: "NCI-H226 lung"
  measurement: "99.9% (inactive)"
- compound: "O=C(Oc1cccc2ccccc12)c1ccccc1C(=O)c1ccccc1"
  tested.system: "NCI-H226 lung"
  measurement: "105% (inactive)"
- compound: "COc1ccc([N+](=O)[O-])c(S(=O)(=O)c2ccc(Cl)cc2)n1"
  tested.system: "NCI-H226 lung"
  measurement: "91.2% (inactive)"
- compound: "CC1CC=CCC1C1OCC(C)(C)CO1 (stereo unspecified)"
  tested.system: "NCI-H226 lung"
  measurement: "99.9% (inactive)"
- compound: "CCc1ccc(-c2nc(SCC(=O)NC3CCCCC3)n[nH]2)cc1"
  tested.system: "NCI-H226 lung"
  measurement: "67.8% (inactive)"
- compound: "O=c1[nH]c(N2CCC(Cc3ccccc3)CC2)nc2sc3c(c12)CCCC3"
  tested.system: "NCI-H226 lung"
  measurement: "92.3% (inactive)"
- compound: "N#Cc1c(-c2ccccc2)cc(-c2ccccc2)n(CCCCC(=O)O)c1=O"
  tested.system: "NCI-H226 lung"
  measurement: "91% (inactive)"
- compound: "COc1cccc(/C=C2\\Cc3ccccc3C2=O)c1"
  tested.system: "NCI-H226 lung"
  measurement: "107% (inactive)"
